Give measured inhibition at 330 µM for each item. Keep answers brief.
Tested on: type III secretion in S. typhimurium
Experiment: microbe, parasite or virus in culture
Type: cell-based, Salmonella enterica serovar Typhimurium
Details: Salmonella enterica, TYPHIMURIUM, read-out: % inhibition of SipA secretion
Answers are plain numbers, in %.

The following compounds have reported results that may help.
COc1cc(/C=C2\S/C(=N\c3ccccc3)N([C@@H](CCCNC(=N)N)C(=O)N[C@@H](C)C(N)=O)C2=O)cc(OC)c1O [compound 87]	100
COc1cc(/C=C2\S/C(=N\c3ccccc3)N(C(Cc3ccncc3)C(=O)N[C@@H](CCCNC(=N)N)C(N)=O)C2=O)cc(OC)c1O (stereo partly drawn) [compound 95]	89
COc1cc(/C=C2\S/C(=N\c3ccccc3)N([C@@H](C)C(=O)N[C@@H](C)C(N)=O)C2=O)cc(OC)c1O [compound 49]	94

For each of the items listed, what is its inhibition at 330 µM?
1. COc1cc(/C=C2\S/C(=N\c3ccccc3)N(C(CCCNC(=N)N)C(=O)N3CSC[C@H]3C(N)=O)C2=O)cc(OC)c1O (stereo partly drawn) [compound 94]
2. COc1cc(/C=C2\S/C(=N\c3ccccc3)N([C@@H](C)C(=O)N[C@@H](CCCN)C(N)=O)C2=O)cc(OC)c1O [compound 54]

1. 89
2. 94

For each of the items listed, what is its inhibition at 330 µM?
1. COc1cc(/C=C2\S/C(=N\c3ccccc3)N(CC(=O)O)C2=O)cc(OC)c1O [compound 57]
2. COc1cc(/C=C2\SC(=Nc3ccccc3)N([C@@H](CCCN)C(=O)N[C@@H](CC3CNc4ccccc43)C(N)=O)C2=O)cc(OC)c1O (stereo partly drawn) [compound 90]
3. COc1cc(/C=C2\S/C(=N\c3ccccc3)N([C@H](C)C(=O)N[C@@H](CCCNC(=N)N)C(N)=O)C2=O)cc(OC)c1O [compound 85]
4. COc1cc(/C=C2\S/C(=N\c3ccccc3)N(C(CCCNC(=N)N)C(=O)N3Cc4ccccc4C[C@H]3C(N)=O)C2=O)cc(OC)c1O (stereo partly drawn) [compound 88]

100
100
99
100

For each of the items listed, what is its inhibition at 330 µM?
1. COc1cc(/C=C2\S/C(=N\c3ccccc3)N([C@@H](C)C(=O)N[C@@H](CCCNC(=N)N)C(N)=O)C2=O)cc(OC)c1O [compound 56]
2. COc1cc(/C=C2\S/C(=N\c3ccccc3)N(C(C)C(=O)N[C@@H](Cc3c[nH]c4ccccc34)C(N)=O)C2=O)cc(OC)c1O (stereo partly drawn) [compound 51]
3. COc1cc(/C=C2\S/C(=N\c3ccccc3)N([C@H](C)C(=O)N[C@@H](CCCN)C(N)=O)C2=O)cc(OC)c1O [compound 84]
4. COc1cc(/C=C2\S/C(=N\c3ccccc3)N(CCCC(=O)OC(C)(C)C)C2=O)cc(OC)c1O [compound 60]
5. COc1cc(/C=C2\S/C(=N\c3ccccc3)N([C@H](C)C(=O)N[C@@H](Cc3c[nH]c4ccccc34)C(N)=O)C2=O)cc(OC)c1O [compound 52]

1. 100
2. 100
3. 99
4. 90
5. 100

For each of the items listed, what is its inhibition at 330 µM?
1. COc1cc(/C=C2\S/C(=N\c3ccccc3)N(CCCCCCN)C2=O)cc(OC)c1O [compound 45]
2. COc1cc(/C=C2\S/C(=N\c3ccccc3)N([C@@H](C)C(=O)N[C@@H](Cc3ccc(O)cc3)C(N)=O)C2=O)cc(OC)c1O [compound 50]
3. COc1cc(/C=C2\S/C(=N\c3ccccc3)N(C(C(=O)N[C@@H](Cc3ccc(O)cc3)C(N)=O)C(C)C)C2=O)cc(OC)c1O (single isomer, unassigned) [compound 69]
4. COc1cc(/C=C2\S/C(=N\c3ccccc3)N(CCCC(=O)O)C2=O)cc(OC)c1O [compound 61]

[95, 90, 97, 74]
